The entries below come with measured % inhibition values attached.
# Test system: AR mRNA
# experimentNotes: Antisense inhibition of human AR in HuVEC cells, single concentration (electroporation, qRT-PCR RTS3559)
# Assay type: cell-based
# experimentalContext: 250 nM ASO, ~24 h, Table 7
Oligonucleotides are written 5' to 3', each unit as a sugar letter and its base; * is a phosphorothioate linkage, no mark a phosphodiester; rarer units and linkages stand in square brackets, end groups in braces. Plain capitals give the bases only. e = 2'-O-(2-methoxyethyl) (MOE); k = constrained ethyl (cEt); [5mC] = 5-methylcytosine; d = 2'-deoxy (DNA)
Reply numerically in %, unit not repeated.

As a guide, the following entries are already answered.
substance	% inhibition, %
569236 (antisense eT*kG*kA*kT*dT*dT*dA*dA*dT*dG*dG*kT*kT*kG*e[5mC]*eA) [compound 569236]	66
560098 (kT*kG*kA*dT*dT*dT*dA*dA*dT*dG*dG*dT*dT*kG*k[5mC]*kA; further chemistry not given here) [compound 560098]	69
549458 (kG*kT*kT*dG*dA*dT*dT*dT*dA*dA*dT*dG*dG*kT*kT*kG) [compound 549458]	71

Please turn your attention to the following entry.
Q) Which % inhibition value is on record for 560131 (antisense kT*kT*kG*dA*dT*dT*dT*dA*dA*dT*dG*dG*kT*kT*kG*e[5mC]) [compound 560131] ?
A) 74

----------
# System: AR mRNA
# experimentNotes: Dose-dependent antisense inhibition of human AR in HuVEC cells (electroporation, qRT-PCR RTS3559, IC50)
# Assay type: cell-based
# experimentalContext: Table 33; HuVEC, electroporation, approximately 16 hours
Oligonucleotides are written 5' to 3', each unit as a sugar letter and its base; * is a phosphorothioate linkage, no mark a phosphodiester; rarer units and linkages stand in square brackets, end groups in braces. Plain capitals give the bases only. k = constrained ethyl (cEt); [5mC] = 5-methylcytosine; d = 2'-deoxy (DNA)
observedProperty: pIC50
In plain terms, pIC50 is the concentration in mol/L turned into minus its base-10 logarithm.

Answered examples (3):
substance	pIC50
583851 (kG*kT*kG*dG*dG*dA*d[5mC]*dG*d[5mC]*dA*d[5mC]*dA*dG*k[5mC]*kG*kG; antisense) [compound 583851]	6.21
583833 (kT*kG*kT*dT*d[5mC]*d[5mC]*d[5mC]*d[5mC]*dT*dG*dG*dA*d[5mC]*kT*k[5mC]*kA; antisense) [compound 583833]	6.59
583853 (kT*kG*k[5mC]*dA*dT*dT*d[5mC]*dG*dG*d[5mC]*d[5mC]*dA*dA*kT*kG*kG; antisense) [compound 583853]	6.68

Q) Reported pIC50 for AR mRNA, given 583919 (kG*kT*kA*dG*dT*d[5mC]*dG*d[5mC]*dG*dA*d[5mC]*dT*d[5mC]*kT*kG*kG; antisense) [compound 583919] ?
A) 6.85

Q) Can you check 583918 (kA*kG*kT*d[5mC]*dG*d[5mC]*dG*dA*d[5mC]*dT*d[5mC]*dT*dG*kG*kT*kA) [compound 583918] next?
A) 6.52

Q) Request: 583893 (kA*kG*k[5mC]*dA*dG*d[5mC]*d[5mC]*dT*dA*dG*dG*d[5mC]*dT*k[5mC]*kT*k[5mC]; antisense) [compound 583893]
A) 6.38
